# Test system: U2OS
# protocol_text: Incucyte cell viability with U2OS; also: unitless GR value; below 1 slowed growth and below 0 cell loss
# Assay type: toxicity, cell-based
# experimental_parameters: human, 18 h, 10 µM, compound concentration 10 uM, replicate number 2
Mark 1 only for Growth Rate values smaller than 0.7; exact matches and larger values are -1.

A selection of reference data follows.
Data request: Report whether reported Growth Rate is lower than 0.7 (strictly) for O=C(Nc1ccc(Cl)c(-c2ccccn2)c1)c1cccc(COc2ccc(Br)cc2CNCCO)c1.O=CO
Data returned: 1

Data request: Report whether reported Growth Rate is lower than 0.7 (strictly) for COc1cc(N)c(Cl)cc1C(=O)NC1CN2CCC1CC2.Cl (stereo not given)
Data returned: -1

New cases:
Data request: Report whether reported Growth Rate is lower than 0.7 (strictly) for COCc1nc2cnc3cc(-c4c(C)noc4C)c(OC[C@H]4CCNC4)cc3c2n1[C@H](C)c1ccccc1 [GSK778]
Data returned: -1
